assay: Cytotoxicity against human erythrocytes assessed as hemolytic activity after 60 mins; type: cell-based, Erythrocyte; settings: read-out: HD50
parameter_measured: HC50 at 1 h

1) CCCCCCCCCCCC(=O)O[C@H]1C[C@@H]2[C@H](CC[C@]3(C)[C@@H]4[C@H](C[C@@H]23)O[C@]2(CC[C@@H](C)CO2)[C@H]4C)[C@@]2(C)C[C@@H](O)[C@H](O[C@@H]3O[C@H](CO)[C@@H](O[C@H]4O[C@H](C)[C@@H](O)[C@H](O)[C@@H]4O)[C@H](O)[C@H]3O[C@H]3O[C@H](C)[C@@H](O)[C@H](O)[C@@H]3O)C[C@H]12 :: > 100 µM

Kindly consider the entry below.
Prompt line: Name the recorded HC50 at 1 h for CCCCCCCCCCCCCC(=O)NC[C@H]1O[C@@H](O[C@H]2CC[C@@]3(C)C(=CC[C@H]4[C@@H]5C[C@@H]6O[C@]7(CC[C@@H](C)CO7)[C@@H](C)[C@@H]6[C@@]5(C)CC[C@@H]43)C2)[C@H](O[C@H]2O[C@H](C)[C@@H](O)[C@H](O)[C@@H]2O)[C@@H](O)[C@@H]1O[C@H]1O[C@H](C)[C@@H](O)[C@H](O)[C@@H]1O .
Response line: > 50 µg/mL
